All figures here come from patent US4129737A.

Each item that follows carries a reported MIC.
Test system: Pr. mirabilis
Assay: Minimum inhibitory concentration by agar dilution, Pr. mirabilis
Format: cell-based
Conditions: Proteus mirabilis; T.S.A. (trypticase soya medium, pH 7.3), 37° C., 18 hours; read-out: minimum inhibitory concentration (M.I.C.)
Source text: (a) Trypticase soya medium (T.S.A.), which is very suitable for culturing the majority of microorganisms; it has the following composition: (b) Ordinarily nutrient agar (N.A.), which is less rich in nutrients, corresponds to the following formulation: […] Table (II) gives the minimum inhibitory concentrations of the compounds of Examples XII to XVI, determined on the agar medium, N.A., and expressed in μg/cm^3.
Number in µg/mL, nothing else.

Record excerpt, results attached:
[[record]]
molecule = "CCn1cc(C(=O)O)c(=O)c2cnc(N3CCN(C)CC3)nc21 [Example V]"
assay_endpoint = "MIC"
readout_value = 6.2

[[record]]
molecule = "CCn1cc(C(=O)O)c(=O)c2cnc(N3CCC(O)CC3)nc21 [IV]"
assay_endpoint = "MIC"
readout_value = 25

[[record]]
molecule = "CCn1cc(C(=O)O)c(=O)c2cnc(N3CCNCC3)nc21 [Example VIII]"
assay_endpoint = "MIC"
readout_value = 0.8

[[record]]
molecule = "CCn1cc(C(=O)O)c(=O)c2cnc(N3CCN(Cc4ccccc4)CC3)nc21 [Example VII]"
assay_endpoint = "MIC"
readout_value = 100


Query: What MIC appears in the records for this molecule with Pr. mirabilis? Cn1cc(C(=O)O)c(=O)c2cnc(N3CCN(CCO)CC3)nc21 [Example XI]
Result: 25
